tested on: peptide-forming enzyme (Mono S fraction enzyme); test: Enzyme substrate specificity (1)-(10), (13), (14): peptide production; format: biochemical, Empedobacter brevis; design: key: +: those peptides for which production was confirmed but which were unable to be quantified due to the absence of a standard; a trace amount; conditions: L-amino acid methyl ester hydrochloride 100 mM, 150 mM L-glutamine, pH 9.0, 25° C., 3 hours
Where a SMILES comes first, the peptide text is derived from it.
measurementName: Formed peptide

>>> reportedresult("NC(=O)CC[C@H](NC(=O)[C@@H](N)Cc1cnc[nH]1)C(=O)O [L-His-L-Gln] (H-His-Gln-OH)")
"+"
>>> reportedresult("NC(=O)CCC(NC(=O)C(N)Cc1c[nH]c2ccccc12)C(=O)O [L-Trp-L-Gln] (H-Trp-Gln-OH; configuration not given here)")
"+"
>>> reportedresult("NC(=O)CC[C@H](NC(=O)[C@@H](N)CC(N)=O)C(=O)O [L-Asn-L-Gln] (H-Asn-Gln-OH)")
"+"
>>> reportedresult("NC(=O)CC[C@H](NC(=O)[C@@H](N)CC(=O)O)C(=O)O [α-L-Asp-L-Gln] (H-Asp-Gln-OH)")
"tr"
>>> reportedresult("NC(=O)CC[C@H](NC(=O)[C@@H](N)CO)C(=O)O [L-Ser-L-Gln] (H-Ser-Gln-OH)")
"24.0 mM"
>>> reportedresult("NC(=O)CC[C@H](NC(=O)[C@@H](N)CCC(N)=O)C(=O)O [L-Gln-L-Gln] (H-Gln-Gln-OH)")
"0.3 mM"
>>> reportedresult("C[C@@H](O)[C@H](N)C(=O)N[C@@H](CCC(N)=O)C(=O)O [L-Thr-L-Gln] (H-Thr-Gln-OH)")
"81.9 mM"
>>> reportedresult("CC(C)C[C@H](N)C(=O)N[C@@H](CCC(N)=O)C(=O)O [L-Leu-L-Gln] (H-Leu-Gln-OH)")
"+"

###

system: enzyme derived from Sphingobacterium sp. strain FERM BP-8124 (SP-Sepharose HP fraction enzyme); experiment: Enzyme substrate specificity (11), (12): peptide production; format: biochemical; details: carboxy component 100 mM, L-Gln 150 mM, 0.33 units enzyme, pH 9.0, 25° C., 1.5 hours
Where a SMILES comes first, the peptide text is derived from it.
Documented Produced peptide (Table 15-2) across a set of molecules
measurementName: Produced peptide (Table 15-2) (mM)

>>> reportedresult("NC(=O)CC[C@H](NC(=O)[C@@H](N)CCC(N)=O)C(=O)O [L-Gln-L-Gln] (H-Gln-Gln-OH)")
0.1
>>> reportedresult("CC[C@H](C)[C@H](N)C(=O)N[C@@H](CCC(N)=O)C(=O)O [L-Ile-L-Gln] (H-Ile-Gln-OH)")
6.4
>>> reportedresult("C[C@@H](O)[C@H](N)C(=O)N[C@@H](CCC(N)=O)C(=O)O [L-Thr-L-Gln] (H-Thr-Gln-OH)")
36.1
>>> reportedresult("CC(C)[C@H](N)C(=O)N[C@@H](CCC(N)=O)C(=O)O [L-Val-L-Gln] (H-Val-Gln-OH)")
8.2
>>> reportedresult("NC(=O)CC[C@H](NC(=O)[C@@H](N)CO)C(=O)O [L-Ser-L-Gln] (H-Ser-Gln-OH)")
12.9
>>> reportedresult("NC(=O)CC[C@H](NC(=O)[C@@H](N)CC(=O)O)C(=O)O [α-L-Asp-L-Gln] (H-Asp-Gln-OH)")
0.05
>>> reportedresult("NC(=O)CC[C@H](NC(=O)[C@@H](N)Cc1ccc(O)cc1)C(=O)O [L-Tyr-L-Gln] (H-Tyr-Gln-OH)")
0.6
>>> reportedresult("CSCC[C@H](N)C(=O)N[C@@H](CCC(N)=O)C(=O)O [L-Met-L-Gln] (H-Met-Gln-OH)")
32.6

###

system: enzyme derived from Sphingobacterium sp. strain FERM BP-8124 (SP-Sepharose HP fraction enzyme); assay: Enzyme substrate specificity (11), (12): peptide production; assay type: biochemical; conditions: carboxy component 100 mM, amine component 150 mM, 0.33 units enzyme, pH 9.0, 25° C., 1.5 hours
Where a SMILES comes first, the peptide text is derived from it. [ ]: non-standard residue; d: D form.
Answer Condition not met if Produced peptide (Table 15-1) is under 50 mM, and Condition met if it is 50 mM or more.

>>> class("C[C@H](N)C(=O)N[C@@H](CC(N)=O)C(=O)O [L-Ala-L-Asn] (H-Ala-Asn-OH)")
"Condition met"
>>> class("C[C@H](N)C(=O)N[C@@H](C)C(=O)O [L-Ala-L-Ala] (H-Ala-Ala-OH)")
"Condition not met"
>>> class("CSCC[C@H](NC(=O)[C@H](C)N)C(=O)O [L-Ala-L-Met] (H-Ala-Met-OH)")
"Condition met"
>>> class("C[C@@H](N)C(=O)N[C@@H](CO)C(=O)O [D-Ala-L-Ser] (H-[dA]-Ser-OH)")
"Condition not met"
>>> class("C[C@H](N)C(=O)N[C@@H](Cc1c[nH]c2ccccc12)C(=O)O [L-Ala-L-Trp] (H-Ala-Trp-OH)")
"Condition not met"
>>> class("C[C@H](N)C(=O)N[C@@H](CCCCN)C(=O)O [L-Ala-L-Lys] (H-Ala-Lys-OH)")
"Condition met"
>>> class("C[C@H](N)C(=O)N[C@@H](CO)C(=O)O [L-Ala-L-Ser] (H-Ala-Ser-OH)")
"Condition not met"
>>> class("C[C@H](N)C(=O)N[C@@H](CC(=O)O)C(=O)O [L-Ala-L-Asp] (H-Ala-Asp-OH)")
"Condition not met"
>>> class("C[C@H](N)C(=O)N[C@H](CO)C(=O)O [L-Ala-D-Ser] (H-Ala-[dS]-OH)")
"Condition not met"
>>> class("C[C@H](N)C(=O)N[C@@H](Cc1ccc(O)cc1)C(=O)O [L-Ala-L-Tyr] (H-Ala-Tyr-OH)")
"Condition not met"
>>> class("C[C@H](N)C(=O)NCC(=O)O [L-Ala-Gly] (H-Ala-Gly-OH)")
"Condition not met"
>>> class("CC[C@H](C)[C@H](NC(=O)[C@H](C)N)C(=O)O [L-Ala-L-Ile] (H-Ala-Ile-OH)")
"Condition not met"
>>> class("C[C@@H](N)C(=O)N[C@H](CO)C(=O)O [D-Ala-D-Ser] (H-[dA]-[dS]-OH)")
"Condition not met"
>>> class("C[C@H](N)C(=O)N[C@H](C(=O)O)[C@@H](C)O [L-Ala-L-Thr] (H-Ala-Thr-OH)")
"Condition not met"
>>> class("CC(C)C[C@H](NC(=O)[C@H](C)N)C(=O)O [L-Ala-L-Leu] (H-Ala-Leu-OH)")
"Condition not met"
>>> class("C[C@H](N)C(=O)N[C@@H](Cc1ccccc1)C(=O)O [L-Ala-L-Phe]")
"Condition met"
>>> class("C[C@H](N)C(=O)N[C@@H](CCCN=C(N)N)C(=O)O [L-Ala-L-Arg] (H-Ala-Arg-OH)")
"Condition met"

###

system: peptide-forming enzyme (Mono S fraction enzyme); experiment: Enzyme substrate specificity (1)-(10), (13), (14): peptide production; assay type: biochemical, Empedobacter brevis; settings: L-amino acid methyl ester hydrochloride 100 mM, L-amino acid 150 mM, pH 9.0, 25° C., 3 hours
Where a SMILES comes first, the peptide text is derived from it.
measurementName: Formed peptide (mM)

>>> reportedresult("CSCC[C@H](NC(=O)[C@@H](N)CCCN=C(N)N)C(=O)O [L-Arg-L-Met] (H-Arg-Met-OH)")
0.7
>>> reportedresult("C[C@@H](O)[C@H](N)C(=O)N[C@@H](CO)C(=O)O [L-Thr-L-Ser] (H-Thr-Ser-OH)")
58.2
>>> reportedresult("NCC(=O)N[C@@H](Cc1cnc[nH]1)C(=O)O [Gly-L-His] (H-Gly-His-OH)")
31.6
>>> reportedresult("NC(N)=NCCC[C@H](N)C(=O)N[C@@H](CO)C(=O)O [L-Arg-L-Ser] (H-Arg-Ser-OH)")
3.6
>>> reportedresult("CC(C)[C@H](N)C(=O)N[C@@H](Cc1ccccc1)C(=O)O [L-Val-L-Phe] (H-Val-Phe-OH)")
6.1
>>> reportedresult("NC(N)=NCCC[C@H](N)C(=O)N[C@@H](Cc1ccccc1)C(=O)O [L-Arg-L-Phe]")
1.9
>>> reportedresult("NCC(=O)N[C@@H](CO)C(=O)O [Gly-L-Ser] (H-Gly-Ser-OH)")
44.2
>>> reportedresult("NCC(=O)N[C@@H](CCCN=C(N)N)C(=O)O [Gly-L-Arg] (H-Gly-Arg-OH)")
25.5
>>> reportedresult("CSCC[C@H](NC(=O)[C@@H](N)C(C)C)C(=O)O [L-Val-L-Met] (H-Val-Met-OH)")
10.3
>>> reportedresult("C[C@H](NC(=O)[C@@H](N)[C@@H](C)O)C(=O)O [L-Thr-L-Ala] (H-Thr-Ala-OH)")
9.4
>>> reportedresult("CSCC[C@H](NC(=O)[C@@H](N)CO)C(=O)O [L-Ser-L-Met] (H-Ser-Met-OH)")
12.5
>>> reportedresult("N[C@@H](CO)C(=O)N[C@@H](Cc1ccccc1)C(=O)O [L-Ser-L-Phe]")
20.3
>>> reportedresult("CSCC[C@H](NC(=O)[C@@H](N)CC(C)C)C(=O)O [L-Leu-L-] (H-Leu-Met-OH)")
12.2
>>> reportedresult("CSCC[C@H](NC(=O)[C@@H](N)[C@@H](C)O)C(=O)O [L-Thr-L-Met] (H-Thr-Met-OH)")
38.6
>>> reportedresult("CSCC[C@H](NC(=O)[C@@H](N)Cc1cnc[nH]1)C(=O)O [L-His-L-Met] (H-His-Met-OH)")
6.5
>>> reportedresult("CSCC[C@H](NC(=O)[C@@H](N)Cc1c[nH]c2ccccc12)C(=O)O [L-Trp-L-Met] (H-Trp-Met-OH)")
4.1
>>> reportedresult("NCC(=O)N[C@@H](Cc1ccccc1)C(=O)O [Gly-L-Phe] (H-Gly-Phe-OH)")
44.0
